# test.protocol: Solubility of the compound in 0.5 ml of distilled water after 15 mins by RP-HPLC analysis
# Type: physicochemical
readout: solubility at 0.25 h (µg/mL)
Numbers only, in µg/mL.

// below: answered molecules
CC(=O)O[C@H]1C(=O)[C@@]2(C)[C@H]([C@H](OC(=O)c3ccccc3)[C@]3(O)C[C@H](OC(=O)[C@H](OC(=O)OCCSSCCOCC(=O)O)[C@@H](NC(=O)c4ccccc4)c4ccccc4)C(C)=C1C3(C)C)[C@]1(OC(C)=O)CO[C@@H]1C[C@@H]2O :: 44
CC(=O)O[C@H]1C(=O)[C@@]2(C)[C@H]([C@H](OC(=O)c3ccccc3)[C@]3(O)C[C@H](OC(=O)[C@H](O)[C@@H](NC(=O)c4ccccc4)c4ccccc4)C(C)=C1C3(C)C)[C@]1(OC(C)=O)CO[C@@H]1C[C@@H]2O [PACLITAXEL] :: 4
CC(=O)O[C@H]1C(=O)[C@@]2(C)[C@H]([C@H](OC(=O)c3ccccc3)[C@]3(O)C[C@H](OC(=O)[C@H](OC(=O)OCCSSCCOC(=O)C[C@H](O)C(=O)O)[C@@H](NC(=O)c4ccccc4)c4ccccc4)C(C)=C1C3(C)C)[C@]1(OC(C)=O)CO[C@@H]1C[C@@H]2O :: 110

We next turn to a different molecule, shown below.
Would you mind telling me what solubility at 0.25 h value was observed for CC(=O)O[C@H]1C(=O)[C@@]2(C)[C@H]([C@H](OC(=O)c3ccccc3)[C@]3(O)C[C@H](OC(=O)[C@H](OC(=O)OCCSSCCN)[C@@H](NC(=O)c4ccccc4)c4ccccc4)C(C)=C1C3(C)C)[C@]1(OC(C)=O)CO[C@@H]1C[C@@H]2O ?
260
